biological target: human DDAH1 (Homo sapiens (Human), UniProt O94760); assay: Inhibitors of human DDAH-1 validated in full dose-response curves (Table 1); format: biochemical; details: Assay Explorer software
Sequence (O94760 whole entry): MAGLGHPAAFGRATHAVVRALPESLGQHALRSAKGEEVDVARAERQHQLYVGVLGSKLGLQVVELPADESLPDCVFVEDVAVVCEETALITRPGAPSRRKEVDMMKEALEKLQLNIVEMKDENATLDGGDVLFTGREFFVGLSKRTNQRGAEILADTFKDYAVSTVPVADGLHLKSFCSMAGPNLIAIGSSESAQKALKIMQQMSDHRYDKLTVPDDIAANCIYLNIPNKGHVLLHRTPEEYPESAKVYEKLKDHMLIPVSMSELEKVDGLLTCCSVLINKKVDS
Lab note: compare IC50 with 10 µM, writing label 1 if less and label 0 if equal or more.

Cc1cc(C)c2c(=O)n(CC(=O)NC(C)c3ccccc3)sc2n1 (stereo not shown) = label 0
N/C=C1\C=C(c2ccccc2)OC1=S = label 0
CCCCNC(=O)Cn1sc2nc(C)cc(C)c2c1=O = label 1
Cc1cc(C)c2c(=O)n(CC(=O)NCCc3ccc(Cl)cc3)sc2n1 = label 0
COCCNC(=O)Cn1sc2nc(C)cc(C)c2c1=O = label 1
CCOCCCNC(=O)Cn1sc2nc(C)cc(C)c2c1=O = label 1
O=C(O)c1ccc(N2C(=O)C=CC2=O)cc1 = label 0
Cc1cc(C)c2c(=O)n(CC(=O)NCCCSC3CCCCC3)sc2n1 = label 0
O=c1[nH]sc2ccccc12 [Benzo[d]isothiazol-3(2H)-one] = label 0
Cc1ccc(-c2ccc(CCC(=O)O)o2)cc1 = label 0

Exam item: Record CCOc1ccc(CCNC(=O)Cn2sc3nc(C)cc(C)c3c2=O)cc1 : is its IC50 strictly below 10 µM?
Marked response: label 0

Exam item: Hi there! Is IC50 for Cc1cc(C)c2c(=O)n(CC(=O)NC3CCCC(C)C3C)sc2n1 (stereo not shown) below 10 µM, do you know?
Marked response: label 1

###

Molecular target: human DDAH1 (Homo sapiens (Human))
Experiment: Inhibitors of human DDAH-1 validated in full dose-response curves (Table 1)
Format: biochemical
Experimental: Over 130,000 small molecules deposited in the Stanford High-throughput Bioscience Center (HTBC) were screened using the enzymatic assay to identify chemicals that regulate DDAH activity. […] In this assay absorbance is proportional to the concentration of citrulline generated by DDAH, and was measured using an AnalystGT plate reader at 485 nm using a dichroic beamsplitter. The signal-to-noise ratio of separation was calculated using an established formula in Zhang. […]
Reported Metric: Hill Slope
// keep it numeric: no unit symbol after the value

COc1ccc(OC)c(CCNC(=O)Cn2sc3nc(C)cc(C)c3c2=O)c1 = 1.5
N/C=C1\C=C(c2ccccc2)OC1=S = 1.3
Cc1cc(C)c2c(=O)n(CC(=O)NCCC3=CCCCC3)sc2n1 = 2
Cc1cc(C)c2c(=O)n(CC(=O)NC(C)c3ccccc3)sc2n1 (stereo not shown) = 1.7
Cc1cc(C)c2c(=O)n(CC(=O)NCCc3ccc(Cl)cc3)sc2n1 = 1.2
O=c1[nH]sc2ccccc12 [Benzo[d]isothiazol-3(2H)-one] = 1

Exam item: Reported Hill Slope, compound CCOCCCNC(=O)Cn1sc2nc(C)cc(C)c2c1=O : ____
Marked response: 2.3

Exam item: # lookup: Hill Slope of COCCNC(=O)Cn1sc2nc(C)cc(C)c2c1=O
Marked response: 1.4

Exam item: Requested field: Hill Slope. Item: O=C(O)c1ccc(N2C(=O)C=CC2=O)cc1
Marked response: 1.6

###

target: recombinant human DDAH1 (rhDDAH1) (Homo sapiens (Human)); experiment: Colorimetric L-citrulline assay of DDAH activity (ADMA substrate; high throughput screen and orthogonal validation); conditions: high throughput screen of library copies (BMF-6, BMF-7, BMF-8, MicroSource, LOPAC), dose-dependent inhibition
Sequence (O94760 whole entry): as above
IC50 values for the compounds below.
Give a bare numeral; the unit µM is implied.

Solved entries (count: 3):
COc1ccnc(C[S+]([O-])c2nc3cc(OC(F)F)ccc3[nH]2)c1OC (stereo not shown) = 63
Cc1c(OCC(F)(F)F)ccnc1C[S+]([O-])c1nc2ccccc2[nH]1 (stereo not shown) = 51
COc1ccc2[nH]c([S+]([O-])Cc3ncc(C)c(OC)c3C)nc2n1 (stereo not shown) = 7.8

// next entry
Exam item: Field request: IC50 | item: N=C1Sc2ccccc2C2=NCCCN12
Marked response: 8.71

###

biological target: human DDAH1 (Homo sapiens (Human), UniProt O94760); test: Fluorimetric CPM assay of DDAH activity (SMTC substrate); format: biochemical
Reported Metric: IC50

Exam item: // map CC(=O)[O-].[Hg+][c]1ccccc1 [phenylmercuric acetate] to recorded IC50 (system: human DDAH1 (Homo sapiens (Human), UniProt O94760))
Marked response: < 780 nM

###

target: DDAH (Homo sapiens (Human), UniProt O94760)
pIC50: −log10 of the molar value.
Reported Metric: pIC50

Exam item: Give recorded pIC50 with DDAH (Homo sapiens (Human), UniProt O94760) for the following compound: COc1ccc2[nH]c([S+]([O-])Cc3ncc(C)c(OC)c3C)nc2c1 (stereo not shown)
Marked response: ~4.22

###

Measured IC50 by item
biological target: human DDAH1 (Homo sapiens (Human), UniProt O94760); experiment: Inhibitors of human DDAH-1 validated in full dose-response curves (Table 1); assay type: biochemical; conditions: Assay Explorer software
Hi! Could you send only the number? It should be in µM, unit omitted.

Known results for compounds:
Cc1cc(C)c2c(=O)n(CC(=O)NCc3ccccc3Cl)sc2n1 = 39.9
O=C1CC(N2CCCCCC2)C(=O)N1c1cccc2ccccc12 (stereo not shown) = 13.1
Cc1ccc(NC(=O)/C=C/C(N)=O)cc1 = 21.2
Cc1cc(C)c2c(=O)n(CC(=O)NC(C)CCc3ccccc3)sc2n1 (stereo not shown) = 14.1
Cc1cc(C)c2c(=O)n(CC(=O)NCc3ccc4c(c3)OCO4)sc2n1 = 11

Exam item: Param readout = IC50; param system = human DDAH1 (Homo sapiens (Human), UniProt O94760); param query = Cc1cc(C)c2c(=O)n(CC(=O)NCCC3=CCCCC3)sc2n1 ; response: value
Marked response: 11.8

Exam item: Write down the reported IC50 of COc1ccc(OC)c(CCNC(=O)Cn2sc3nc(C)cc(C)c3c2=O)c1 , test system: human DDAH1 (Homo sapiens (Human), UniProt O94760).
Marked response: 9.9

###

Target: human DDAH1 (Homo sapiens (Human), UniProt O94760)
Test: Inhibitors of human DDAH-1 validated in full dose-response curves (Table 1)
Type: biochemical
Description: Over 130,000 small molecules deposited in the Stanford High-throughput Bioscience Center (HTBC) were screened using the enzymatic assay to identify chemicals that regulate DDAH activity. […] In this assay absorbance is proportional to the concentration of citrulline generated by DDAH, and was measured using an AnalystGT plate reader at 485 nm using a dichroic beamsplitter. The signal-to-noise ratio of separation was calculated using an established formula in Zhang. […]
Reported Metric: Hill Slope
Give only the figure.

Field: example entries. Status: answers known.
Cc1cc(C)c2c(=O)n(CC(=O)NCc3ccc4c(c3)OCO4)sc2n1 = 1.5
CCOc1ccc(CCNC(=O)Cn2sc3nc(C)cc(C)c3c2=O)cc1 = 1.5
Cc1cc(C)c2c(=O)n(CC(=O)NCCCSC3CCCCC3)sc2n1 = 1.6
Cc1cc(C)c2c(=O)n(CC(=O)NC(C)CCc3ccccc3)sc2n1 (stereo not shown) = 1.6

Exam item: Which measured Hill Slope belongs to Cc1ccc(NC(=O)/C=C/C(N)=O)cc1 , tested on human DDAH1 (Homo sapiens (Human), UniProt O94760)?
Marked response: 1.1

Exam item: Under human DDAH1 (Homo sapiens (Human), UniProt O94760): Hill Slope value of O=C1CC(N2CCCCCC2)C(=O)N1c1cccc2ccccc12 (stereo not shown) ?
Marked response: 1.8

Exam item: Query the reported Hill Slope for human DDAH1 (Homo sapiens (Human), UniProt O94760); item: CCCCNC(=O)Cn1sc2nc(C)cc(C)c2c1=O
Marked response: 1.7

Exam item: Field: Hill Slope (human DDAH1 (Homo sapiens (Human), UniProt O94760)). Entry: Cc1ccc(-c2ccc(CCC(=O)O)o2)cc1
Marked response: 1.1

Exam item: Provide the documented Hill Slope with human DDAH1 (Homo sapiens (Human), UniProt O94760) as the system for Cc1cc(C)c2c(=O)n(CC(=O)NC3CCCC(C)C3C)sc2n1 (stereo not shown)
Marked response: 1.7

Exam item: Form entry - test system: human DDAH1 (Homo sapiens (Human), UniProt O94760); read-out: Hill Slope; compound: Cc1cc(C)c2c(=O)n(CC(=O)NCc3ccccc3Cl)sc2n1
Marked response: 0.4

Each recorded value in this set is attributed to patent US9011882B2.
